- target desc: UniProtKB P07711
- Sequence (P07711 114-333 limits assumed): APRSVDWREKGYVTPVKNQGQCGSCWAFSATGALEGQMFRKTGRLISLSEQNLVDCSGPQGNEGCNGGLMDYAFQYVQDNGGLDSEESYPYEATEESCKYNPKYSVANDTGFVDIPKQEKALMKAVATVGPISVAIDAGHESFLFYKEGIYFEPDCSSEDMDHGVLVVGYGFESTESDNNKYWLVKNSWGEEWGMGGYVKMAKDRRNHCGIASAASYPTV
- protocol summary: Ratio of Kinact to Ki for human cathepsin L
Please provide measured Ratio for the entries that follow.
Give your answer as a number; write no unit.

(Q) Supply Ratio value. Item: COC(=O)/C=C/CNC(=O)CN1C(=O)[C@@H](COC(=O)Nc2ccc(OC)cc2)N=C(c2ccccc2)c2ccccc21
(A) 12500

(Q) Supply Ratio value. Item: COC(=O)/C=C/CNC(=O)CN1C(=O)[C@@H](COC(=O)Nc2cccc3ccccc23)N=C(c2ccccc2)c2ccccc21
(A) 6400

(Q) Supply Ratio value. Item: CCCCNC(=O)OC[C@H]1N=C(c2ccccc2)c2ccccc2N(CC(=O)NC/C=C/C(=O)OC)C1=O
(A) 9400

(Q) Supply Ratio value. Item: COC(=O)/C=C/CNC(=O)CN1C(=O)[C@@H](COC(=O)NC23CC4CC(CC(C4)C2)C3)N=C(c2ccccc2)c2ccccc21
(A) 550

* * *

Consider the following pKi values measured on Rhodesain (Trypanosoma brucei rhodesiense).
Sequence (Q95PM0 whole entry): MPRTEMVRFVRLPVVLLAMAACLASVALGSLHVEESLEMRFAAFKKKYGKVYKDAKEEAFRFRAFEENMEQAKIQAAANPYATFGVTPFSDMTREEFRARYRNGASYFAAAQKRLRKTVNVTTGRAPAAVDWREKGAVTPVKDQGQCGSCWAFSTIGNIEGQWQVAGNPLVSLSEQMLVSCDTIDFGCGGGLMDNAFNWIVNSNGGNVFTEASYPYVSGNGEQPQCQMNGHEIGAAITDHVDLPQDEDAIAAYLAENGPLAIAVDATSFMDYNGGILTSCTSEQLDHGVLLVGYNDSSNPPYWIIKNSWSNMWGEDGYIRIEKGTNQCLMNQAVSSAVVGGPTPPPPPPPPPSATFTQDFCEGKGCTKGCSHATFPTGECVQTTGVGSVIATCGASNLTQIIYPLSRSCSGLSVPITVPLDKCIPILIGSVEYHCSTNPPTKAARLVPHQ
Give only the number. pKi is defined as minus log10 of concentration in molar units.

(Q) Supply pKi value. Item: COC(=O)/C=C/CNC(=O)CN1C(=O)[C@@H](COC(=O)NC23CC4CC(CC(C4)C2)C3)N=C(c2ccccc2)c2ccccc21
(A) 8.59

(Q) Supply pKi value. Item: COC(=O)/C=C/CNC(=O)CN1C(=O)[C@@H](COC(=O)Nc2ccc(Cl)cc2C(F)(F)F)N=C(c2ccc(Br)cc2)c2ccccc21
(A) 6.33

(Q) Supply pKi value. Item: COC(=O)/C=C/CNC(=O)CN1C(=O)[C@@H](COC(=O)Nc2ccc(Cl)cc2C(F)(F)F)N=C(c2ccccc2)c2ccccc21
(A) 6.09

(Q) Supply pKi value. Item: COC(=O)/C=C/CNC(=O)CN1C(=O)[C@@H](COC(=O)Nc2ccc(OC)cc2)N=C(c2ccccc2)c2ccccc21
(A) 5.37

(Q) Supply pKi value. Item: COC(=O)/C=C/[C@H](CC(C)C)NC(=O)CN1C(=O)[C@@H](COC(=O)Nc2ccc(Cl)cc2C(F)(F)F)N=C(c2ccccc2)c2ccccc21
(A) 6.06

(Q) Supply pKi value. Item: COC(=O)/C=C/CNC(=O)CN1C(=O)[C@@H](COC(=O)Nc2ccc(Cl)cc2C(F)(F)F)N=C(c2ccccc2)c2cc(Cl)ccc21
(A) 7.06

(Q) Supply pKi value. Item: COC(=O)/C=C/CNC(=O)CN1C(=O)[C@@H](COC(=O)Nc2cccc3ccccc23)N=C(c2ccccc2)c2ccccc21
(A) 6.03

* * *

- target desc: Falcipain 2 (Plasmodium falciparum, UniProt Q9N6S8)
- Sequence (Q9N6S8 whole entry): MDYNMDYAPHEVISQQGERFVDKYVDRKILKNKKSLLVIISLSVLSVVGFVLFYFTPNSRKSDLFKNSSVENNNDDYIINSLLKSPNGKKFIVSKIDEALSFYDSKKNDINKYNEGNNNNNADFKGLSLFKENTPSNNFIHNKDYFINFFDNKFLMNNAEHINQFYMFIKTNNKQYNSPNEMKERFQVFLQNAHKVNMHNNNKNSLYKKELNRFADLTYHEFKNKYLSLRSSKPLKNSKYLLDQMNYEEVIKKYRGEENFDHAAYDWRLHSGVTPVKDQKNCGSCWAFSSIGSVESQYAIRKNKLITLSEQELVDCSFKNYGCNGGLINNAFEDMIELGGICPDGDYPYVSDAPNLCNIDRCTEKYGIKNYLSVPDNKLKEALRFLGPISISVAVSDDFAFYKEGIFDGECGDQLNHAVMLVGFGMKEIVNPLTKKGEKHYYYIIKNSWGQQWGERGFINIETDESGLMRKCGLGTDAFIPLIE
- protocol summary: Inhibition of Plasmodium falciparum recombinant falcipain-2 after 10 min
Please provide measured Ki for the entries that follow.
All answers are understood in µM, so give the number only.

(Q) Supply Ki value. Item: COC(=O)/C=C/CNC(=O)CN1C(=O)[C@@H](COC(=O)Nc2ccc(OC)cc2)N=C(c2ccccc2)c2ccccc21
(A) 15.1

(Q) Supply Ki value. Item: COC(=O)/C=C/CNC(=O)CN1C(=O)[C@@H](COC(=O)NC2CCCCC2)N=C(c2ccccc2)c2ccccc21
(A) 89

(Q) Supply Ki value. Item: COC(=O)/C=C/CNC(=O)CN1C(=O)[C@@H](COC(=O)Nc2ccc(Cl)cc2C(F)(F)F)N=C(c2ccccc2)c2ccccc21
(A) 0.017

(Q) Supply Ki value. Item: COC(=O)/C=C/CNC(=O)CN1C(=O)[C@@H](COC(=O)Nc2ccc(Cl)cc2C(F)(F)F)N=C(c2ccc(Br)cc2)c2ccccc21
(A) 1.56

(Q) Supply Ki value. Item: COC(=O)/C=C/CNC(=O)CN1C(=O)[C@@H](COC(=O)Nc2ccc(Cl)cc2C(F)(F)F)N=C(c2ccccc2)c2cc(Cl)ccc21
(A) 0.46

(Q) Supply Ki value. Item: COC(=O)/C=C/CNC(=O)CN1C(=O)[C@@H](COC(=O)NC23CC4CC(CC(C4)C2)C3)N=C(c2ccccc2)c2ccccc21
(A) 0.014

(Q) Supply Ki value. Item: COC(=O)/C=C/[C@H](CC(C)C)NC(=O)CN1C(=O)[C@@H](COC(=O)Nc2ccc(Cl)cc2C(F)(F)F)N=C(c2ccccc2)c2ccccc21
(A) 2.22

(Q) Supply Ki value. Item: COC(=O)/C=C/CNC(=O)CN1C(=O)[C@@H](COC(=O)Nc2cccc3ccccc23)N=C(c2ccccc2)c2ccccc21
(A) 3.48

Cited source: ChEMBL document CHEMBL1177686
